Provenance of the data: patent US5290347A

- assay summary: Solubility of the salt-forming type dyes (Tables 1-3)
- Type: physicochemical
- applied conditions: Water:Solvent = 2:8
measured parameter: Solubility, Water:Solvent = 2:8 (g/100 ml)

Some compounds with recorded Solubility, Water:Solvent = 2:8:
{"compound": "Nc1ccc2cc(S(=O)(=O)O)cc(O)c2c1N=Nc1cc(S(=O)(=O)O)cc2cc(S(=O)(=O)O)c(N=Nc3cccc(P(=O)(O)O)c3)c(O)c12", "measured parameter": "Solubility, Water:Solvent = 2:8", "units symbol": "g/100 ml", "reported": 30}
{"compound": "Nc1cc2c(O)c(N=Nc3ccc(N=Nc4cccc(P(=O)(O)O)c4)c4ccc(S(=O)(=O)O)cc34)c(S(=O)(=O)O)cc2cc1S(=O)(=O)O [Black No. 4]", "measured parameter": "Solubility, Water:Solvent = 2:8", "units symbol": "g/100 ml", "reported": 30}

1. CC(=O)Nc1cc(S(=O)(=O)O)cc2cc(S(=O)(=O)O)c(N=Nc3cccc(P(=O)(O)O)c3)c(O)c12
2. COc1cc(N=Nc2cccc(P(=O)(O)O)c2)c(C)cc1N=Nc1c(S(=O)(=O)O)cc2ccc(N)cc2c1O [Black No. 1]
input: Of the two listed items, 1 and 2 , which carries the larger Solubility, Water:Solvent = 2:8 figure? Respond using the label that marks the chosen record.
output: 1
(1: 30 g/100 ml, 2: 15 g/100 ml)
